All values here come from PubChem BioAssay AID488890.

Method: growth inhibition of non-replicating M. tuberculosis (AID 488890);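 note: plate controls were DMSO cells for no effect and high antibiotic wells for full effect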
Run conditions: Mycobacterium tuberculosis non-replicating, at 25 µM, stronger effect = higher value
Hit rate of the full screen: of about 320,000 compounds, about 1,300 (0.41%) were called active. Inconclusive results (about 3%) are left out. Only a sample is shown. Results with a measured potency or affinity are listed apart.
Assay metric: inhibition (%)

>>> recorded_measurement("O=C(CN1C(=O)C(=O)c2ccccc21)c1ccccc1")
27
>>> recorded_measurement("O=C/C(=C\\Nc1ccc(Cl)cn1)c1nc2cc(Cl)ccc2o1")
58.2
>>> recorded_measurement("Cc1ccc(CNC(=O)c2ccc(Br)o2)cc1")
71.9
>>> recorded_measurement("O=C(COC(=O)c1cccnc1Cl)Nc1cc(S(=O)(=O)N2CCOCC2)ccc1Cl")
-5.03
>>> recorded_measurement("O=C1C2C3C=CC(C3)C2C(=O)N1CC1CCCO1 (stereo not given)")
-0.04
>>> recorded_measurement("CC(C)(C)Nc1nc(N2CCCC2)nc(N2CCCC2)n1")
59.5
>>> recorded_measurement("Cc1ccc(COC(=O)NCc2cccnc2)cc1")
4.06
>>> recorded_measurement("CCN(CC)C(=O)c1sc2nc(Cc3ccccc3)[nH]c(=O)c2c1C")
11
>>> recorded_measurement("CC(/C=C/c1ccc2c(c1)OCO2)=N\\NC(=O)C(O)c1ccccc1 (stereo not given)")
-1.85
>>> recorded_measurement("COc1ccccc1NC(=O)c1ccc(-c2ccccc2[N+](=O)[O-])o1")
25
>>> recorded_measurement("O=C(CN1C(=O)C(=O)N(CCC2=CCCCC2)C1=O)Nc1ccc(F)cc1F")
8.84
>>> recorded_measurement("CCOc1ccc(/C=C/C(=O)N(CC)CC(=O)Nc2ccc3c(c2)OCCO3)cc1OC")
13.6
>>> recorded_measurement("CC(C)CN(C(=O)COC(=O)C1=COCCO1)c1c(N)n(Cc2ccccc2)c(=O)[nH]c1=O")
0.83
>>> recorded_measurement("Cc1cccc(NC(=O)c2ccco2)c1C")
-14.2
>>> recorded_measurement("O=C(N/N=C/c1ccc2c(c1)OCO2)C1COc2ccccc2O1 (stereo not given)")
69.6
>>> recorded_measurement("Cc1cc(C(=O)CSc2nc3ccc(Cl)cc3[nH]2)c(C)n1Cc1ccco1")
13.9
>>> recorded_measurement("Cc1cc(C)n(-c2ccc(C(=O)Nc3cccc(S(=O)(=O)N4CCCC4)c3)cc2)n1")
-4.31
>>> recorded_measurement("CCN(CC)CCOC(=O)C(Cc1ccco1)Cc1cccc2ccccc12 (stereo not given)")
12.1
>>> recorded_measurement("CCOC(=O)C1=C(COC(=O)c2ccc(C)s2)NC(=O)NC1C (stereo not given)")
11.3
>>> recorded_measurement("COc1cc(NC(=O)c2ccc([N+](=O)[O-])o2)ccc1NC(=O)c1ccco1")
66.5
>>> recorded_measurement("c1ccc(Oc2nc(-c3cccnc3)nc3ccccc23)cc1")
18.6
>>> recorded_measurement("CCCNC(=O)c1ccc(Cn2c(=S)[nH]c3c([nH]c4ccc(OC)cc43)c2=O)cc1")
-43.9
>>> recorded_measurement("Cc1ccc(C(=O)/C=C\\NCc2ccccc2)cc1")
37.6
>>> recorded_measurement("Cc1nn(CC(=O)NCc2cc3ccccc3[nH]2)c(C)c1[N+](=O)[O-]")
-11.5
>>> recorded_measurement("O=[N+]([O-])c1cccc(-c2nnc(-c3ccccc3F)o2)c1")
35.9
>>> recorded_measurement("CN(C)C(=O)CSc1nnc([C@H](Cc2c[nH]c3ccccc23)NC(=O)OC(C)(C)C)o1")
-0.86
>>> recorded_measurement("CC(C)(SC(=S)N1CCCCCC1)C(=O)O")
13.4
>>> recorded_measurement("O=C(c1ccc2c(c1)CCN2S(=O)(=O)c1ccccc1)N1CCN(c2ccc(F)cc2)CC1")
18.7
>>> recorded_measurement("Cc1ccccc1Cn1nnc(C(=O)Nc2cccc(C)c2C)c1N")
26
>>> recorded_measurement("Cc1cc(S(=O)(=O)Nc2cc(C)c(O)c(C)c2)c(C)s1")
13
>>> recorded_measurement("CCc1ccc(N(CC(=O)NCc2ccco2)C(=O)CCC(=O)Nc2ccccn2)cc1")
-13.9
>>> recorded_measurement("COc1ccc(C(=O)NNC(=O)Nc2ccc(Cl)cc2)cc1")
-7.99
>>> recorded_measurement("O=[N+]([O-])c1cccc(-c2nnc(-c3ccccc3)o2)c1")
75.3
>>> recorded_measurement("COc1ccc(C(=O)NCC(=O)NCC(=O)OCc2ccc(Cl)cc2)cc1")
-0.72
>>> recorded_measurement("CC(/C=C/c1ccccc1F)=N\\NC(=O)C(C)C")
13.2
>>> recorded_measurement("O=C1c2ccccc2C(=O)N1C1CCCCC1")
-9.63
>>> recorded_measurement("CCOc1ccc(-c2nnc3sc(COc4ccc(Cl)cc4)nn23)cc1")
-1.47
>>> recorded_measurement("O=[N+]([O-])c1ccc(NC(=S)N2CCc3ccccc3C2)cc1")
-1.08
>>> recorded_measurement("Cc1ccc(N/C=C/C(=O)c2ccc(C)cc2)cc1")
19.2
>>> recorded_measurement("Cc1cccc(NC(=O)c2cccc(Cn3cc(Br)c([N+](=O)[O-])n3)c2)c1C")
-0.16
>>> recorded_measurement("CCNc1nc(N2CCCC2)nc(N2CCCC2)n1")
75.5
>>> recorded_measurement("Cc1ccc(Oc2nc(-c3cccnc3)nc3ccccc23)c([N+](=O)[O-])n1")
-3.06
>>> recorded_measurement("Oc1ccc(Br)cc1-c1cc(-c2ccccc2)n[nH]1")
-5.74
>>> recorded_measurement("Cn1c(-c2ccccc2)cc2ccccc21")
-0.86
>>> recorded_measurement("CCCNC1=C(C)C(=O)C2=C(C1=O)C(COC(N)=O)[C@]1(OC)C3NC3CN21 (stereo not given in full)")
55.1

* * *

Method: growth inhibition of non-replicating M. tuberculosis (AID 488890);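 note: plate controls were DMSO cells for no effect and high antibiotic wells for full effect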
Run conditions: Mycobacterium tuberculosis non-replicating, at 25 µM, stronger effect = higher value
Out of some 320,000 compounds screened, about 1,300 (0.41%) were called active. Not shown: some 3% with an inconclusive outcome. A selection follows. Entries with a potency or affinity are not part of this list.
Assay metric: inhibition (%)

>>> recorded_measurement("O=c1oc(-c2cccs2)nc2ccccc12")
48.8
>>> recorded_measurement("O=c1c2cnn(-c3ccccc3)c2nc(-c2cccs2)n1-c1ccc(Br)cc1")
8.85
>>> recorded_measurement("Cc1ccc(S(=O)(=O)N2CCCCC2)cc1NC(=O)COC(=O)C1=COCCO1")
-3.36
>>> recorded_measurement("CCCSc1nnc(Cn2c(=O)sc3ccccc32)n1-c1ccccc1")
7.2
>>> recorded_measurement("CCC(C)c1ccc(O)c(N)c1 (stereo unspecified)")
1.15
>>> recorded_measurement("COCCOC(=O)c1c(NC(=O)CN2CCCc3ccccc32)sc(C(N)=O)c1C")
22.6

* * *

Method: growth inhibition of non-replicating M. tuberculosis (AID 488890);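 note: plate controls were DMSO cells for no effect and high antibiotic wells for full effect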
Run conditions: Mycobacterium tuberculosis non-replicating, at 25 µM, stronger effect = higher value
About 1,300 (0.41%) of roughly 320,000 compounds were called active. About 3% were inconclusive and are not listed. A selection follows. Measured potencies and affinities stand elsewhere.
Classification field: enter yes for inhibition values not below 20%, no for values below it.

>>> assigned_category("COc1ccc(C(=O)Nc2ccc(O)c3ccccc23)cc1")
"yes"
>>> assigned_category("O=C(Nc1nccs1)c1ccc(-c2ccc(F)c(Cl)c2)o1")
"yes"
>>> assigned_category("Clc1cccc(-c2ccc(CNCCCN3CCOCC3)o2)c1")
"no"
>>> assigned_category("COc1ccc(NC(=O)Nc2c(O)ccc3ccccc23)cc1")
"no"
>>> assigned_category("O=C(Nc1cccc(-n2cnnn2)c1)c1ccoc1COc1ccc(Cl)cc1")
"no"
>>> assigned_category("O=C(NCc1ccccn1)Nc1ccc(F)c(Cl)c1")
"no"

* * *

Measured inhibition by item
Method: growth inhibition of non-replicating M. tuberculosis (AID 488890);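 note: plate controls were DMSO cells for no effect and high antibiotic wells for full effect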
Run conditions: Mycobacterium tuberculosis non-replicating, at 25 µM, stronger effect = higher value
Hit rate of the full screen: of about 320,000 compounds, about 1,300 (0.41%) were called active. Roughly 3% stayed inconclusive and do not appear here. These entries were drawn from the full list. Results with a measured potency or affinity are listed apart.
Assay metric: inhibition (%)

>>> recorded_measurement("CCc1nc2ccccc2n1CC(=O)N1CCN(S(=O)(=O)c2cccc(C(F)(F)F)c2)CC1")
11.4
>>> recorded_measurement("NC(=O)c1sc2nc(N3CCOCC3)c3c(c2c1N)CCCC3")
3.31
>>> recorded_measurement("O=C(c1ccc(Cl)s1)N(Cc1nnc(-c2ccccc2Cl)o1)C1CC1")
31.8
>>> recorded_measurement("O=C1NC(=O)N(Cc2ccc(F)cc2)C(=O)/C1=C\\C=C\\c1ccco1")
75.2
>>> recorded_measurement("Cc1ccc(-c2nnn(CC(=O)N(c3ccccc3)C(C(=O)NCC3CCCO3)c3cccs3)n2)o1 (centres undefined)")
-3.42
>>> recorded_measurement("CC(Oc1ccccc1)C(=O)OCC(=O)Nc1ccc2c(c1)OCO2 (centres undefined)")
23.9
>>> recorded_measurement("Cc1ccc(NCC(=O)c2ccc(C)cc2)cc1")
72.5
>>> recorded_measurement("COc1ccc(OCCC(=O)OCC(=O)NC2CCCCC2)cc1")
39.1
>>> recorded_measurement("O=C(Cc1ccc(F)cc1)N1CCC(CC2CC(c3cccc(Br)c3)=NO2)(C(=O)NCC2CCCCC2)CC1 (centres undefined)")
37
>>> recorded_measurement("COc1ccc(N(CC(=O)Nc2ccc(F)c(Cl)c2)S(=O)(=O)c2c(C)noc2C)cc1")
19.1
>>> recorded_measurement("Cc1cc(NCCCn2ccnc2)n2nc(C)c(-c3ccc(Cl)cc3)c2n1")
-1.28
>>> recorded_measurement("O=C(Nc1cccc(F)c1)Nc1ccc2c(c1)C(=O)OC2")
-9.41
>>> recorded_measurement("COc1ccccc1N1CCN(C(=O)c2sc3nc(-c4ccc(F)cc4)cn3c2C)CC1")
40.2
>>> recorded_measurement("CC1CN(C(C)C(=O)NC(c2ccccc2)c2ccccc2)CC(C)O1 (centres undefined)")
-1.17
>>> recorded_measurement("Cc1ccc(NC(=O)c2ccccc2)cc1")
25.8
>>> recorded_measurement("O=C(NC1CC1)c1cc2ccccc2o1")
6.17
>>> recorded_measurement("COc1ccc(C2C(C(C)=O)=C(C)Nc3ncnn32)c(OC)c1OC (centres undefined)")
-4.13
>>> recorded_measurement("CC(=O)Nc1ccc(Nc2cc(C(C)C)nc3c(-c4ccccc4)c(C)nn23)cc1")
5.77
>>> recorded_measurement("CN1C(=O)/C(=C/C=C/c2ccco2)C(=O)NC1=S")
-21.1
>>> recorded_measurement("CCCN(Cc1nnc(-c2ccccc2Cl)o1)C(=O)c1oc2ccccc2c1C")
-13.1
>>> recorded_measurement("CCOc1ccc(CCNC(=O)COC(=O)CCC(=O)c2cccs2)cc1OCC")
11.4
>>> recorded_measurement("COc1ccc(C(=O)NCCNC(=O)c2ccccn2)cc1")
-3.54
>>> recorded_measurement("COc1ccccc1N(CC(O)Cn1c2ccccc2c2ccccc21)S(=O)(=O)c1ccccc1 (centres undefined)")
31.5
>>> recorded_measurement("Cc1nc2ccc(NC(=O)c3ccc(Cl)c([N+](=O)[O-])c3)cc2s1")
-1.87
>>> recorded_measurement("O=C(CSc1n[nH]c(-c2ccc(S(=O)(=O)NC3CCCCC3)cc2)n1)N1CCCC1")
12.1
>>> recorded_measurement("CC1CCN(S(=O)(=O)c2cccc(C(N)=O)c2)CC1")
0.16
>>> recorded_measurement("Cc1cc(NC2CCCC2)n2ncc(-c3ccccc3)c2n1")
36.8
>>> recorded_measurement("COc1ccc(C(=O)NNC(=O)c2ccccn2)cc1")
12.8
>>> recorded_measurement("Cc1sc(NC(=O)C2CSC3(C)CCC(=O)N23)nc1-c1ccc(F)cc1 (centres undefined)")
23.3
>>> recorded_measurement("O=C(NC1CCCCC1)c1cc2ccccc2cc1O")
30.4
>>> recorded_measurement("Cc1cc(C)cc(N2C(=O)NC(=O)/C(=C\\C=C\\c3ccco3)C2=O)c1")
2.52
>>> recorded_measurement("C#CCOCCOCCOCCNc1nc(N2CCN(C(=O)[C@H](CCC(=O)O)n3cc(C(N)CC(C)C)nn3)CC2)nc(N2CCN(C(=O)[C@H](CCC(=O)O)n3cc(C(N)[C@H](C)CC)nn3)CC2)n1 (some centres undefined)")
-2.67
>>> recorded_measurement("Cn1c2ccccc2c2cc(/C=N/NC(=O)c3cc(O)cc(O)c3)ccc21")
-7.45
>>> recorded_measurement("Cc1ccc(N2C(=O)NC(=O)/C(=C\\C=C\\c3ccco3)C2=O)cc1")
18.7
>>> recorded_measurement("CSc1ccc(-c2sc(Nc3ccccc3)n[n+]2-c2ccc(F)cc2)cc1")
20.5
>>> recorded_measurement("CC1Cc2ccccc2N1C(=O)COC(=O)c1cc(Br)ccc1O (centres undefined)")
62.7
>>> recorded_measurement("COc1cccc(C(=O)NCCNC(=O)c2ccccn2)c1")
-10.9
>>> recorded_measurement("CC1=C(C(=O)Nc2ccccc2)S(=O)(=O)CCO1")
68.2
>>> recorded_measurement("O=C(CCC(=O)N1CCN(c2ccc(F)cc2)CC1)c1ccc(Cl)cc1")
37.7
>>> recorded_measurement("O=C(CSc1c2c(nc3cc(Cl)ccc13)CCCC2)NCCCN1CCOCC1")
50
>>> recorded_measurement("Cc1ccc(C(=O)CNc2ccc(Cl)cc2)cc1")
74.1
>>> recorded_measurement("Cc1cccc[n+]1CC(=O)/C=C1\\N(C)c2ccccc2C1(C)C")
-1.75
>>> recorded_measurement("CCS(=O)(=O)N1CCC(C(=O)Oc2ccc(C(=O)OC)cc2)CC1")
4.94
>>> recorded_measurement("O=C(CCC1CCCC1)NCCCNC(=O)CCC1CCCC1")
72.8
